- ASSAY_SYSTEM: T1, HLA-A*02:01 (human)
- T1 construct: monomers captured on streptavidin plates; also called MHC class I
- MEASUREMENT_NOTES: UV peptide exchange ELISA
Measured peptide exchange yield values are reported for all entries that follow.
ENDPOINT_NAME: peptide exchange yield

1) ALQDFLLSV 50 to 75%
2) LLQELVLFL 50 to 75%
3) NLWEDPYYL 50 to 75%
4) IMEENPGIFAV 50 to 75%
5) ALWGGTQPLL 20 to 50%
6) FLYDEIEAEV 50 to 75%
7) SVAPNLPAV 50 to 75%
8) KIFDIDEAEEGV 20 to 50%
